Data credit: patent US8507460B2

# Assay: Plasma and liver pharmacokinetics following a single oral dose in mice (Example 6)
# Type: in vivo
# Measurement context: mouse, plasma; CD-1 mice, oral 25 mg/kg, normalized to 1 μmol/kg dose; 1a average of N = 2; read-out: Plasma prodrug Cmax
Reported property: Cmax (nM)
Field format: number, assumed nM, no unit text.

Which Cmax is listed for CCOc1nc(N)nc2c1ncn2[C@@H]1O[C@@H]2COP(=O)(OC(C)C)O[C@H]2[C@@]1(C)O (single isomer, unassigned) ?
43

* * *

# Assay: Cytotoxicity evaluation, CellTiter-Blue Cell Viability Assay
# Type: cell-based
# Measurement context: human, Zluc cells, read-out: HCV Replicon CC50
Reported property: CC50 at 72 h

Need CC50 at 72 h, item CCOc1nc(N)nc2c1ncn2[C@@H]1O[C@@H]2COP(=O)(OC(C)C)O[C@H]2[C@@]1(C)O (single isomer, unassigned)
> 50 µM

* * *

# System: Zluc cells
# Assay: Cytotoxicity evaluation, CellTiter-Blue Cell Viability Assay
# Assay type: cell-based
# Measurement context: read-out: HCV Replicon CC50
Reported property: CC50

So what's the measured CC50 for this one? CCOc1nc(N)nc2c1ncn2[C@@H]1O[C@@H]2COP(=O)(OC(C)C)O[C@H]2[C@@]1(C)O (single isomer, unassigned)
> 50 µM

* * *

AUC(0-t) listing for selected compounds.
# Assay: Plasma and liver pharmacokinetics following a single oral dose in monkeys (Example 6)
# Format: in vivo
# Measurement context: cynomolgus monkey, in vivo; Cynomolgus monkeys, single oral dose (mg/kg per Table 6: 1a 10, A 25, B 10, C 10, D 50), normalized to 1 μmol/kg dose; read-out: Plasma prodrug AUC0-24
Write it as a number; the unit nM·h goes unstated.

Compound: CC(C)OC(=O)[C@H](C)N[P@](=O)(OC[C@H]1O[C@@H](n2ccc(=O)[nH]c2=O)[C@](C)(F)[C@@H]1O)Oc1ccccc1 [Compound D]
Value reported: 3.5

Switching to the query record.
Item under review: COc1nc(N)nc2c1ncn2[C@@H]1O[C@H](COP(=O)(N[C@@H](C)C(=O)OCC(C)(C)C)Oc2cccc3ccccc23)[C@@H](O)[C@@]1(C)O (some centres unmarked) [Compound B] . Reported AUC(0-t)?
0.2

* * *

# Assay: Plasma and liver pharmacokinetics following a single oral dose in monkeys (Example 6)
# Assay type: in vivo
# Measurement context: cynomolgus monkey, in vivo; Cynomolgus monkeys, single oral dose (mg/kg per Table 6: 1a 10, A 25, B 10, C 10, D 50), normalized to 1 μmol/kg dose; read-out: Plasma prodrug Cmax
// Cmax lookup, one value per entry
The response must be a number in nM with no trailing unit.

Molecule: COc1nc(N)nc2c1ncn2[C@@H]1O[C@H](COP(=O)(N[C@@H](C)C(=O)OCC(C)(C)C)Oc2cccc3ccccc23)[C@@H](O)[C@@]1(C)O (some centres unmarked) [Compound B]
Value reported: 0.2

Entry CC(C)OC(=O)[C@H](C)N[P@](=O)(OC[C@H]1O[C@@H](n2ccc(=O)[nH]c2=O)[C@](C)(F)[C@@H]1O)Oc1ccccc1 [Compound D] has what Cmax?
1.2

* * *

# Assay: Plasma and liver pharmacokinetics following a single oral dose in monkeys (Example 6)
# Assay type: in vivo
# Measurement context: cynomolgus monkey, plasma; Cynomolgus monkeys, single oral dose (mg/kg per Table 6: 1a 10, A 25, B 10, C 10, D 50), normalized to 1 μmol/kg dose; read-out: Plasma prodrug Cmax
Cmax: recorded values
Express it in nM; write the number only.

Compound: CCOc1nc(N)nc2c1ncn2[C@@H]1O[C@@H]2COP(=O)(OC(C)C)O[C@H]2[C@@]1(C)O (single isomer, unassigned)
Cmax, nM: 22

Now consider a different compound.
I'd like to know its Cmax. The compound in question is CCOc1nc(N)nc2c1ncn2[C@@H]1O[C@@H]2COP(=O)(OC(C)C)O[C@H]2[C@@]1(C)F (some centres unmarked)
100
